# Tested on: Human immunodeficiency virus 1
# assay text: Antiviral activity against Human immunodeficiency virus 1 harboring M46I, M46L, I54V, V82A and L76V mutations in viral protease assessed as fold change in drug susceptibility relative to wild type
# Type: functional
measure name: fold change (FC)
Give your answer as a number; write no unit.

"CCC[C@@]1(CCc2ccccc2)CC(O)=C([C@H](CC)c2cccc(NS(=O)(=O)c3ccc(C(F)(F)F)cn3)c2)C(=O)O1" yielded fold change (FC) of 1.2

"CC(C)CN(C[C@@H](O)[C@H](Cc1ccccc1)NC(=O)O[C@H]1CO[C@H]2OCC[C@H]21)S(=O)(=O)c1ccc(N)cc1" yielded fold change (FC) of 4.2

"Cc1c(O)cccc1C(=O)N[C@@H](CSc1ccccc1)[C@H](O)CN1C[C@H]2CCCC[C@H]2C[C@H]1C(=O)NC(C)(C)C" yielded fold change (FC) of 14.8

====

# System: Human immunodeficiency virus 1
# assay text: Antiviral activity against Human immunodeficiency virus 1 harboring M46I, M46L, I54V, and V82A mutations in viral protease assessed as fold change in drug susceptibility relative to wild type
# Format: functional
Recorded fold change (FC) by entry
Give your answer as a number; write no unit.

Cc1c(O)cccc1C(=O)N[C@@H](CSc1ccccc1)[C@H](O)CN1C[C@H]2CCCC[C@H]2C[C@H]1C(=O)NC(C)(C)C [NELFINAVIR] yielded fold change (FC) of 13.9

CC(C)(C)NC(=O)[C@@H]1C[C@@H]2CCCC[C@@H]2CN1C[C@@H](O)[C@H](Cc1ccccc1)NC(=O)[C@H](CC(N)=O)NC(=O)c1ccc2ccccc2n1 [SAQUINAVIR] yielded fold change (FC) of 2.8

CCC[C@@]1(CCc2ccccc2)CC(O)=C([C@H](CC)c2cccc(NS(=O)(=O)c3ccc(C(F)(F)F)cn3)c2)C(=O)O1 [TIPRANAVIR] yielded fold change (FC) of 1.7

====

# Test system: Human immunodeficiency virus 1
# assay text: Antiviral activity against Human immunodeficiency virus 1 harboring protease inhibitor resistance-associated mutations assessed as fold change in drug susceptibility relative to wild type
# Type: functional
Mark 1 (yes) for reported fold change (FC) of 40 or greater; mark 0 (no) for anything smaller.

As a guide, the following entries are already answered.
molecule="CC(C)c1nc(CN(C)C(=O)N[C@H](C(=O)N[C@@H](Cc2ccccc2)C[C@H](O)[C@H](Cc2ccccc2)NC(=O)OCc2cncs2)C(C)C)cs1 [RITONAVIR]" test_target="Human immunodeficiency virus 1" classification="1 (yes)"
molecule="Cc1c(O)cccc1C(=O)N[C@@H](CSc1ccccc1)[C@H](O)CN1C[C@H]2CCCC[C@H]2C[C@H]1C(=O)NC(C)(C)C [NELFINAVIR]" test_target="Human immunodeficiency virus 1" classification="1 (yes)"
molecule="COC(=O)N[C@H](C(=O)N[C@@H](Cc1ccccc1)[C@@H](O)CN(Cc1ccc(-c2ccccn2)cc1)NC(=O)[C@@H](NC(=O)OC)C(C)(C)C)C(C)(C)C [ATAZANAVIR]" test_target="Human immunodeficiency virus 1" classification="1 (yes)"
molecule="CC(C)CN(C[C@@H](O)[C@H](Cc1ccccc1)NC(=O)O[C@H]1CCOC1)S(=O)(=O)c1ccc(N)cc1 [AMPRENAVIR]" test_target="Human immunodeficiency virus 1" classification="0 (no)"
molecule="CC(C)(C)NC(=O)[C@@H]1C[C@@H]2CCCC[C@@H]2CN1C[C@@H](O)[C@H](Cc1ccccc1)NC(=O)[C@H](CC(N)=O)NC(=O)c1ccc2ccccc2n1 [SAQUINAVIR]" test_target="Human immunodeficiency virus 1" classification="1 (yes)"

Reported fold change (FC) reaches at least 40 for CC(C)CN(C[C@@H](O)[C@H](Cc1ccccc1)NC(=O)O[C@H]1CO[C@H]2OCC[C@H]21)S(=O)(=O)c1ccc(N)cc1 [DARUNAVIR] ?
0 (no)

Reported fold change (FC) reaches at least 40 for Cc1cccc(C)c1OCC(=O)N[C@@H](Cc1ccccc1)[C@@H](O)C[C@H](Cc1ccccc1)NC(=O)[C@H](C(C)C)N1CCCNC1=O [LOPINAVIR] ?
1 (yes)

Reported fold change (FC) reaches at least 40 for CCC[C@@]1(CCc2ccccc2)CC(O)=C([C@H](CC)c2cccc(NS(=O)(=O)c3ccc(C(F)(F)F)cn3)c2)C(=O)O1 [TIPRANAVIR] ?
0 (no)
